experiment: qHTS Assay for Identifying a Potential Treatment of Ataxia-Telangiectasia: Hit Validation; conditions: Ataxia-telangiectasia cell-based hit validation qHTS, in ATM-null A-T patient fibroblasts; series mostly up to 76.9 µM;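 further: phospho-KAP1 level by AlphaLISA as a proxy for ATM-like kinase activity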
Results filed as inconclusive are left out. Active and inactive are the calls of the source. The call rests on the fitted dose curve; in most records, active means well fitted activation curve with a large enough effect; inconclusive means small, poorly fitted or top-dose-only effect; inactive means no such curve, though single readings can be large or run the other way.
Classes used: class 1 = active, class 0 = inactive

• CCC(Oc1ccccc1)C(=O)N(C)CC(=O)N(CC(C)C)c1c(N)n(CC(C)C)c(=O)[nH]c1=O (stereo unspecified) = class 0
• CCN(CC)c1ccc2cc(-c3nc4ccccc4[nH]3)c(=O)oc2c1 = class 0
• CC(C)C1CC(CCN)(c2ccccc2)CCO1 (stereo unspecified) = class 0
• CCCN1C2CCCC1CC(NC(=S)Nc1cccc(C)c1C)C2 (stereo unspecified) = class 0
• CCN1CCN(CC(=O)Nc2ccc(C(C)=O)cc2)CC1 = class 1
• CN(C)S(=O)(=O)c1ccc(NC(=O)c2ccc([N+](=O)[O-])cc2)cc1 = class 0
• C=CCC(CC)C(=O)NC(=O)N1CCCc2ccccc21 (stereo unspecified) = class 0
• Cn1c(=O)oc2cc(S(=O)(=O)N3CCc4ccccc43)ccc21 = class 0
• COc1ccc2c(c1)c(N=NC(N)=S)c(O)n2CC(=O)c1ccccc1 = class 0
• COc1ccc(-n2c(C)cc(=O)[nH]c2=O)cc1 = class 0
• COc1ccc(C(=O)CSc2nc3ncccc3[nH]2)cc1OC = class 0

###

experiment: qHTS Assay for Identifying a Potential Treatment of Ataxia-Telangiectasia: Hit Validation; conditions: Ataxia-telangiectasia cell-based hit validation qHTS, in ATM-null A-T patient fibroblasts; series mostly up to 76.9 µM;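 further: phospho-KAP1 level by AlphaLISA as a proxy for ATM-like kinase activity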
Records with an inconclusive call do not appear. Calls of active or inactive are those of the source. Calls come from the whole dose curve; as a rule, active = well fitted activation curve with a large enough effect; inconclusive = small, poorly fitted or top-dose-only effect; inactive = no such curve, though single readings can be large or run the other way.
Classes used: True = active, False = inactive

- COC(=O)N/N=C/c1ccccc1OCCOc1ccc(OC)cc1: False
- Cc1oc2c(c(C)cc3oc(=O)c(CC(=O)NCC(=O)NCC(=O)O)c(C)c32)c1C: True
- O=C(CSc1ccccn1)N/N=C/C=C/c1ccccc1: False
- COc1ccc(C2/C=C\CN(S(=O)(=O)c3ccc4ccccc4c3)CC(=O)N2Cc2ccc(F)cc2)cc1 (stereo not given): True
- CC(=O)Nc1ccc(NC2=CC(=O)c3ccccc3C2=O)cc1: False
- Cc1ccc(-c2noc(CCC(=O)NC3CCN(Cc4ccccc4)CC3)n2)cc1: False
- O=C(OCCc1cc2ccccc2c(=O)o1)c1cccc(Br)c1: False
- C=CCN1C(=O)/C(=C/C(=O)OC)S/C1=N\NC(=O)c1ccccc1: False
- CC(=O)Nc1ccc(NC(=O)CSc2nnnn2-c2ccc(F)cc2)cc1: False
- COc1ccc(NS(=O)(=O)c2ccc(N3CC(O)=C(c4ccccc4)C3=N)cc2)cc1: False

###

assay: qHTS Assay for Identifying a Potential Treatment of Ataxia-Telangiectasia: Hit Validation; settings: Ataxia-telangiectasia cell-based hit validation qHTS, in ATM-null A-T patient fibroblasts; series mostly up to 76.9 µM;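 further: phospho-KAP1 level by AlphaLISA as a proxy for ATM-like kinase activity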
Records with an inconclusive call do not appear. Active and inactive are the calls of the source. The call rests on the fitted dose curve; in most records, active means well fitted activation curve with a large enough effect; inconclusive means small, poorly fitted or top-dose-only effect; inactive means no such curve, though single readings can be large or run the other way.
Classes used: T = active, F = inactive

* Cc1oc2ccc(OCc3ccc(Br)cc3)cc2c1C(=O)O | F
* COCCCNC(=O)c1c[nH]c2ccc(S(=O)(=O)N(C)c3ccccc3C)cc2c1=O | F
* CC(C)(C=O)C1=CC(=O)c2ccccc2C1=O | T
* CC(C)(CN1CCN(c2ccccc2)CC1)NS(=O)(=O)c1ccccc1 | F
* COc1cc(CCC(C)NCc2ccccc2)ccc1O (configuration not stated) | F
* Cn1cnc([N+](=O)[O-])c1SCCO | F
* O=C(Nc1ccccc1Oc1ccccc1)c1cccs1 | T
* Nc1ccc2ncccc2c1 | F
* O=C(O)c1ccc(C2Nc3ccccc3C(=O)N2Cc2ccccc2)cc1 (configuration not stated) | F
* CNC(=S)N(CCc1c(C)[nH]c2ccc(Cl)cc12)Cc1cccnc1 | F
* CNC(=O)Cc1csc2ccc(C)cc12 | F
* CCOc1ccc(C(=O)NC(=S)Nc2cccnc2)cc1[N+](=O)[O-] | F
